Entries annotated with measured GI50
# Tested on: SK-MEL-5
# protocol-text: NCI tumour cell line growth inhibition, 48 h
Activity calls are given as the source filed them. No stated cut-off is given here; in the data, active = GI50 up to about 1.1 µM and inactive = higher.
property-label: GI50

> print(dat)
                                    compound  system.tested  property.label               result
 1  Cc1cc(Cl)ccc1C1OC(=O)c2c1ccc1ccccc21 (stereo unspecified)       SK-MEL-5            GI50   58.2 µM (inactive)
 2       CCOC(=O)CCc1c(C)c2c(O)cc(O)cc2oc1=O       SK-MEL-5            GI50  > 100 µM (inactive)
 3  O=C1OS2(OC(=O)c3cccc4cccc2c34)c2ccccc21 (stereo unspecified)       SK-MEL-5            GI50  > 100 µM (inactive)
 4  O=S(=O)(c1cc(Cl)ccc1Cl)N1CCN(c2ccc(Cl)c(Cl)c2)CC1       SK-MEL-5            GI50   22.8 µM (inactive)
 5  Cc1[nH]c2ccccc2c1/C=C/c1c(C)[nH]c2ccccc12       SK-MEL-5            GI50  > 100 µM (inactive)
 6  CC(C)(C)c1cc(C(=O)/C=C/c2ccc3c(c2)OCO3)cc(C(C)(C)C)c1O       SK-MEL-5            GI50    4.2 µM (inactive)
 7      Nc1nc(S)nc(C(=O)Nc2nccs2)c1-c1ccccc1       SK-MEL-5            GI50  > 100 µM (inactive)
 8  O=C(O)C1CCCN1Cc1cc2ccccc2c2ccccc12 (stereo unspecified)       SK-MEL-5            GI50  > 100 µM (inactive)
 9  CCc1cccc(C(C)C)c1NC(=O)/C(=N\NC(N)=O)C(C(=O)OC)c1cnc2ccccc2n1 (stereo unspecified)       SK-MEL-5            GI50   18.7 µM (inactive)
10         N=C(N)NC(=N)Nc1ccc(S(=O)(=O)O)cc1       SK-MEL-5            GI50  > 100 µM (inactive)
11  NC(=O)NC(=O)CCC(NS(=O)(=O)c1ccccc1)C(=O)NC(N)=O (stereo unspecified)       SK-MEL-5            GI50  > 100 µM (inactive)

Attribution: ChEMBL document CHEMBL1201862
